Target: T1, gAnkB aa. 1477-1792 (human, UniProt Q01484 1477-1792)
T1 sequence (looked up): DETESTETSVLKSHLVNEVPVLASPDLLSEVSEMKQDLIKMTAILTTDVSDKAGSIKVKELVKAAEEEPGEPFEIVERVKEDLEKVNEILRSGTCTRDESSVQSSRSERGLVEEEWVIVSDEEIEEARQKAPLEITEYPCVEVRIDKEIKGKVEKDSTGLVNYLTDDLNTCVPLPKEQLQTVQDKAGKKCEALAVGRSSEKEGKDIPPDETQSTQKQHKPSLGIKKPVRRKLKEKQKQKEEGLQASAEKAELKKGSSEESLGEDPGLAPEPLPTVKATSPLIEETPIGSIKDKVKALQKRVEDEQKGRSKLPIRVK
Test: ITC
// values below are reported Kd

>  <binder>
ASAP1 SH3 domain (aa. 1083-1147) (domain or fragment, mouse, UniProt Q9QWY8 1083-1147, looked up) GKNKVRRVKTIYDCQADNDDELTFIEGEVIIVTGEEDQEWWIGHIEGQPERKGVFPVSFVHILSD

>  <Kd>
~140 nM

$$$$
>  <binder>
mouse ASAP2-SH3 (aa. 896-958) recombinant protein (domain or fragment, UniProt Q7SIG6 896-958, looked up) SKPKRVKALYNCVADNPDELTFSEGDVIIVDGEEDQEWWIGHIDGEPSRKGAFPVSFVHFIAD

>  <Kd>
~68 nM

$$$$
